# tested.on: recombinant MMP-9 (Homo sapiens, UniProt P14780)
# Construct: purchased
# Sequence (P14780 94-707, species assumed): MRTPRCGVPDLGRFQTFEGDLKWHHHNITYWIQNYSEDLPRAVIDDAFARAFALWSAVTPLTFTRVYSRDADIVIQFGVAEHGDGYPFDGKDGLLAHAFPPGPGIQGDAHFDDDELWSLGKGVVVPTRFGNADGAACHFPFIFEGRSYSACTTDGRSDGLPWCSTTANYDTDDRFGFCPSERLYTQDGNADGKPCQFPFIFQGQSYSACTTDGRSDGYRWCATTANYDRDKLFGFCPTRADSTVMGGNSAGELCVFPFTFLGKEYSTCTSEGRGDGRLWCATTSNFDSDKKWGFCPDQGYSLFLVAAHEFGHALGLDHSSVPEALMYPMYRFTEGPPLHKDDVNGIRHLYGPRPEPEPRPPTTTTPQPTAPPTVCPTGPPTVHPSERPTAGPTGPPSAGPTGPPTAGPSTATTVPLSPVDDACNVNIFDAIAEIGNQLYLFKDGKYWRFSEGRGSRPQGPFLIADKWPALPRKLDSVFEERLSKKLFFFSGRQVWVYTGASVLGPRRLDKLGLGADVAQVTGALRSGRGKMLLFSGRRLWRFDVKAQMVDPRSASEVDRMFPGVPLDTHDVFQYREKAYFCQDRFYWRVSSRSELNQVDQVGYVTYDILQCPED
# assay.name: MMP inhibitory potency in vitro, succinylated-gelatin colorimetric assay
# Format: biochemical
# test.context: read-out: MMP-9 IC50 μM; Table 2
measurement.type: IC50

> print(dat)
                                   molecule                                 tested.on  measurement.type    result
1  O=C(N[C@@H]1C[C@@H]2CC[C@H]1C2)P(=O)(O)O (relative stereo)  recombinant MMP-9 (Homo sapiens, UniProt P14780)              IC50  > 100 µM
